test.target: STK39 (human) (UniProt Q9UEW8)
assay.name: radiometric filter-binding kinase assay, Kinase HotSpot
measurement.setup: compound 0.5 µM; ATP 10 µM
Just a reminder that ties go to criterion not met: only residual activity strictly below 90% counts as criterion met.

[[record]]
structure_as_smiles = "Cc1ccc(Nc2nccc(N(C)c3ccc4c(C)n(C)nc4c3)n2)cc1S(N)(=O)=O"
group = "criterion not met"

[[record]]
structure_as_smiles = "CC[n+]1c(/C=C/N(C)c2ccccc2)n(-c2ccccc2)c2ccc(-c3nc4ccccc4s3)cc21"
group = "criterion met"

[[record]]
structure_as_smiles = "CNC(=O)c1cc(Oc2ccc(NC(=O)Nc3ccc(Cl)c(C(F)(F)F)c3)cc2)ccn1"
group = "criterion not met"


Dear reviewer, please state whether Cc1[nH]c(/C=C2\C(=O)Nc3ccc(S(=O)(=O)N(C)c4cccc(Cl)c4)cc32)c(C)c1C(=O)N1CCN(C)CC1 has residual activity strictly beneath 90%. criterion met

# TODO verify residual activity < 90% strictly for this compound: CCN(CC)CCNC(=O)c1c(C)[nH]c(/C=C2\C(=O)Nc3ccc(Cl)cc32)c1C criterion met

Does this compound meet the criterion residual activity < 90%? Oc1cccc(-c2nc(N3CCOCC3)c3oc4ncccc4c3n2)c1 criterion not met

# TODO verify residual activity < 90% strictly for this compound: N#C/C(=C(/N)Sc1ccc(N)cc1)c1ccccc1C(F)(F)F criterion not met

Report whether reported residual activity is lower than 90% (strictly) for O=S(=O)(c1cccc2cnccc12)N1CCCNCC1 criterion not met

Here's an entry: CNc1cc2c(Nc3cccc(Br)c3)ncnc2cn1 . Is its residual activity below 90%? criterion not met

----------
test.target: UniProtKB P80192
Sequence (P80192 whole entry, looked up): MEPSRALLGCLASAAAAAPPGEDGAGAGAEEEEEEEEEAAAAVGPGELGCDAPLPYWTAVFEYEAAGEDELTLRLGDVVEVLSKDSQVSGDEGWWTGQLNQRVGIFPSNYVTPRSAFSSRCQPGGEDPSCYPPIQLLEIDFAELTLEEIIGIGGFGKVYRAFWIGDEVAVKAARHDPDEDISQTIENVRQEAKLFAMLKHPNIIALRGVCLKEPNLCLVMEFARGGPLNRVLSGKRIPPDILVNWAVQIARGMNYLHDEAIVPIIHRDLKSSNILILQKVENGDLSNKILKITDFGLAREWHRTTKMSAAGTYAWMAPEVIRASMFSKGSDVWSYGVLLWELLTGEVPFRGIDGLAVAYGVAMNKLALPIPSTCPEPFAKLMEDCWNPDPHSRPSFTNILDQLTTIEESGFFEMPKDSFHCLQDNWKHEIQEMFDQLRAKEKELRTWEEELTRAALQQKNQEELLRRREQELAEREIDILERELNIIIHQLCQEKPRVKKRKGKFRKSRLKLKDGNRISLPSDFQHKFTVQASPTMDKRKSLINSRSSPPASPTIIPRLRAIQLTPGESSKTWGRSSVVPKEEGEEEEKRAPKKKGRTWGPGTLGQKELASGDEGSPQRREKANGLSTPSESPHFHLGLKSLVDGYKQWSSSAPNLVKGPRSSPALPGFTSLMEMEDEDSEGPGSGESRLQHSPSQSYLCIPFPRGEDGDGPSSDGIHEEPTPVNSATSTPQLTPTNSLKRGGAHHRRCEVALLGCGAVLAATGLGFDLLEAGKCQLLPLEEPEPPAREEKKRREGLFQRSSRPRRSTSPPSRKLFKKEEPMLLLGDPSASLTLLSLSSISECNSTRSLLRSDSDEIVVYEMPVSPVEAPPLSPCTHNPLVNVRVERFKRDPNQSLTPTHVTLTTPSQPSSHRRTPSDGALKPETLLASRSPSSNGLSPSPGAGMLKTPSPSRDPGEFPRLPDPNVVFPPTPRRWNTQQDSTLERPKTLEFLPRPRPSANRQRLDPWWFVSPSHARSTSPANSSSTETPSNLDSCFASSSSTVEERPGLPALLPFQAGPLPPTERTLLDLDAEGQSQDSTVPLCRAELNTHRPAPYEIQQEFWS
assay.name: radiometric filter-binding kinase assay, Kinase HotSpot
measurement.setup: compound 0.5 µM; ATP 10 µM
measured.endpoint: residual activity (%)
Write the answer as a number in %, unit excluded.

[[record]]
structure_as_smiles = "CCOC(=O)c1c(C)[nH]c(/C=C2\\C(=O)Nc3ccccc32)c1C"
test_target = "UniProtKB P80192"
unit_string = "%"
data_value = 61.6

[[record]]
structure_as_smiles = "CNc1cc2c(Nc3cccc(Br)c3)ncnc2cn1"
test_target = "UniProtKB P80192"
unit_string = "%"
data_value = 94.4

[[record]]
structure_as_smiles = "Oc1cccc(-c2nc(N3CCOCC3)c3oc4ncccc4c3n2)c1"
test_target = "UniProtKB P80192"
unit_string = "%"
data_value = 103

[[record]]
structure_as_smiles = "Cc1[nH]c(/C=C2\\C(=O)Nc3ccc(S(=O)(=O)N(C)c4cccc(Cl)c4)cc32)c(C)c1C(=O)N1CCN(C)CC1"
test_target = "UniProtKB P80192"
unit_string = "%"
data_value = 95.2

[[record]]
structure_as_smiles = "O=C1NC(=O)/C(=C/c2ccc3c(c2)OC(F)(F)O3)S1"
test_target = "UniProtKB P80192"
unit_string = "%"
data_value = 101


Item under review: O=C(Nc1cccc(Nc2nccc(Nc3cccc(C(F)(F)F)c3)n2)c1)C1CC1 . Reported residual activity? 95.2

Consider the compound O=c1cc(N2CCOCC2)oc2c1ccc1ccccc12 and give its measured residual activity. 111

Which residual activity is reported for this compound? c1ccc(-c2n[nH]c3c2oc2ccccc23)cc1 97.5

----------
Below: a set of entries, each annotated with reported residual activity.
test.target: NEK4 (human)
assay.name: radiometric filter-binding kinase assay, Kinase HotSpot
measurement.setup: compound 0.5 µM; ATP 10 µM
Dear colleague, please return just the value in %, with no unit written.

Example results:
[[record]]
structure_as_smiles = "Nc1ncnc2c1c(-c1ccc(Oc3ccccc3)cc1)cn2C1CCCC1"
test_target = "NEK4 (human)"
data_value = 92.1

[[record]]
structure_as_smiles = "O=C(Nc1cccc(Nc2nccc(Nc3cccc(C(F)(F)F)c3)n2)c1)C1CC1"
test_target = "NEK4 (human)"
data_value = 83.4

[[record]]
structure_as_smiles = "CCC(=O)Nc1ccc2ncnc(Nc3cccc(Br)c3)c2c1"
test_target = "NEK4 (human)"
data_value = 94.7

[[record]]
structure_as_smiles = "O=C1NC(=O)/C(=C/c2ccc3c(c2)OC(F)(F)O3)S1"
test_target = "NEK4 (human)"
data_value = 97.8

[[record]]
structure_as_smiles = "Nc1cccc(-c2cc3c(Oc4cccc(O)c4)ncnc3[nH]2)c1"
test_target = "NEK4 (human)"
data_value = 91.4


Query (compound): COc1cc2ncnc(Nc3cccc(Cl)c3)c2cc1OC ; field requested: residual activity 87.5

----------
Measured residual activity values are reported for all entries that follow.
test.target: PRKG2 (human) (UniProt Q13237)
Sequence (Q13237 whole entry, looked up): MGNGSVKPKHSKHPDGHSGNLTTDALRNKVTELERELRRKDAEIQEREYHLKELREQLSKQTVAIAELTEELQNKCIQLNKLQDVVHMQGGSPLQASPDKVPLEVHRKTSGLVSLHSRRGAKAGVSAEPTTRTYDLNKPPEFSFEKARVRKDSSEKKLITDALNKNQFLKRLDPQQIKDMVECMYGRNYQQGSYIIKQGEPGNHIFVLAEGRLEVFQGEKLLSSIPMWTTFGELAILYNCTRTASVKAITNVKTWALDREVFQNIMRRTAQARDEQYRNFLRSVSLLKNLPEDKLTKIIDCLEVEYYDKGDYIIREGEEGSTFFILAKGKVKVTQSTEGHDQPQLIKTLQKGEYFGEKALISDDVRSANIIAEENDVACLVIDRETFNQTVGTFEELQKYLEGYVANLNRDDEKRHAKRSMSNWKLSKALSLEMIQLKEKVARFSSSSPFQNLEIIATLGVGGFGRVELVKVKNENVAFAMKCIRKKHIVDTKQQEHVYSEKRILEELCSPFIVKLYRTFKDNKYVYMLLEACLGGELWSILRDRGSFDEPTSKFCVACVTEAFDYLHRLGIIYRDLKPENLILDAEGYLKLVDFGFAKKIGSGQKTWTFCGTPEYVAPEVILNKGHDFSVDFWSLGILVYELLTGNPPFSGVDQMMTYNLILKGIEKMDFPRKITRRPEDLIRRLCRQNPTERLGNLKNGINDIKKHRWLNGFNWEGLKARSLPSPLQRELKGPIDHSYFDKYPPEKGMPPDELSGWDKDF
assay.name: radiometric filter-binding kinase assay, Kinase HotSpot
measurement.setup: compound 0.5 µM; ATP 10 µM
The reply should contain only the number, in %.

Solved entries:
[[record]]
structure_as_smiles = "O=C(Nc1cccc(Nc2nccc(Nc3cccc(C(F)(F)F)c3)n2)c1)C1CC1"
data_value = 96.2

[[record]]
structure_as_smiles = "Oc1cccc(-c2nc(N3CCOCC3)c3oc4ncccc4c3n2)c1"
data_value = 89.2

[[record]]
structure_as_smiles = "O=C1NC(=O)c2c1c1c3ccccc3n3c1c1c2c2ccccc2n1C1CCC3O1"
data_value = 6.01


Recorded residual activity for c1ccc(-c2n[nH]cc2-c2ccnc3ccccc23)nc1 , please? 89.2

Name the recorded residual activity for COc1ccc(COc2ccc(Cc3cnc(N)nc3N)cc2OC)cc1 . 104

What does the data say about its residual activity? Entry: N#C/C(=C(/N)Sc1ccc(N)cc1)c1ccccc1C(F)(F)F 113

----------
test.target: ABL1 (human) (UniProt P00519)
Sequence (P00519 whole entry, looked up): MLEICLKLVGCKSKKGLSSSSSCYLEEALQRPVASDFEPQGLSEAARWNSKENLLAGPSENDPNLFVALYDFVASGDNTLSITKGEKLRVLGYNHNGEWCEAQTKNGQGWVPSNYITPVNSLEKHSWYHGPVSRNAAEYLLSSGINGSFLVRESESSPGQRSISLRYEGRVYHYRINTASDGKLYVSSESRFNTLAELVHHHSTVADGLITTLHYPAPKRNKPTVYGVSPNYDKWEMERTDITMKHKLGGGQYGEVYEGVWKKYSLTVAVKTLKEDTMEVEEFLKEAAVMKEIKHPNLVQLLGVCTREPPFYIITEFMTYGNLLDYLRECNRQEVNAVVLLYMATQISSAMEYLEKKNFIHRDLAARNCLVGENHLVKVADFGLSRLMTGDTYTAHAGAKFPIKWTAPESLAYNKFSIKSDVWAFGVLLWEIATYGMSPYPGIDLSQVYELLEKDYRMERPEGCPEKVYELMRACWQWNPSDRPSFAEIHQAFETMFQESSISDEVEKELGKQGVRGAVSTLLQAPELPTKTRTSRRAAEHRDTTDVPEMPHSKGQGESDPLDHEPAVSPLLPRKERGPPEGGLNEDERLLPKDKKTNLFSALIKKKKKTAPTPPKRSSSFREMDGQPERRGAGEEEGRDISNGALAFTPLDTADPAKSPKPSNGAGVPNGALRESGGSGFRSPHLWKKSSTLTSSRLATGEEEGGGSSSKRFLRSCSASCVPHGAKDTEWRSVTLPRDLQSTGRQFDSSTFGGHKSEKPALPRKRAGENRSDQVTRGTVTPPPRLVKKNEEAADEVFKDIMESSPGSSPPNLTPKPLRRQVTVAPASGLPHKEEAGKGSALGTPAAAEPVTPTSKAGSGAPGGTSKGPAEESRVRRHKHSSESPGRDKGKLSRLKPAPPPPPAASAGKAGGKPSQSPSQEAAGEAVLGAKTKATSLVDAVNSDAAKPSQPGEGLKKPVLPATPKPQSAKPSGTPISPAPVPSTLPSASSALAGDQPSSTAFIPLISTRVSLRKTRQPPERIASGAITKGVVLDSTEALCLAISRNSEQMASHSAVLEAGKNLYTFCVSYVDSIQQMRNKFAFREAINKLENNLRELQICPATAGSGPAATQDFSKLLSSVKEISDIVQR
assay.name: radiometric filter-binding kinase assay, Kinase HotSpot
measurement.setup: compound 0.5 µM; ATP 10 µM
# Lookup of reported residual activity keyed by entry
Express it in %; write the number only.

Consider the reported residual activity for these compounds:
[[record]]
structure_as_smiles = "CC#CC(=O)Nc1cc2c(Nc3ccc(F)c(Cl)c3)ncnc2cn1"
data_value = 97.8

[[record]]
structure_as_smiles = "O=S(=O)(c1cccc2cnccc12)N1CCCNCC1"
data_value = 96.8

[[record]]
structure_as_smiles = "COc1ccc2c(c[n+](C)c3c4cc5c(cc4ccc23)OCO5)c1OC"
data_value = 92.7

[[record]]
structure_as_smiles = "CC[n+]1c(/C=C/N(C)c2ccccc2)n(-c2ccccc2)c2ccc(-c3nc4ccccc4s3)cc21"
data_value = 96.7

[[record]]
structure_as_smiles = "Nc1ccc2ncnc(NCCc3ccc(Oc4ccccc4)cc3)c2c1"
data_value = 89.7

[[record]]
structure_as_smiles = "Nc1cccc(-c2cc3c(Oc4cccc(O)c4)ncnc3[nH]2)c1"
data_value = 5.5

[[record]]
structure_as_smiles = "Oc1cccc(-c2nc(N3CCOCC3)c3oc4ncccc4c3n2)c1"
data_value = 94.4

[[record]]
structure_as_smiles = "Nc1ncnc2[nH]nc(Nc3ccc(F)cc3)c12"
data_value = 88.1


Entry CC(C)N(CCC(=O)c1ccc2ccccc2c1)Cc1ccccc1 has what residual activity? 101

// returns reported residual activity for input N#C/C(=C(/N)Sc1ccc(N)cc1)c1ccccc1C(F)(F)F 106

I have this compound here, CCN(CC)CCNC(=O)c1c(C)[nH]c(/C=C2\C(=O)Nc3ccc(Cl)cc32)c1C , and I need its recorded residual activity. 24.7

Would you kindly share the measured residual activity for O=C1NC(=O)/C(=C/c2ccc3c(c2)OC(F)(F)O3)S1 ? 98.5

----------
# residual activity per record follows
test.target: CSNK1G1 (human) (UniProt Q9HCP0)
Sequence (Q9HCP0 whole entry, looked up): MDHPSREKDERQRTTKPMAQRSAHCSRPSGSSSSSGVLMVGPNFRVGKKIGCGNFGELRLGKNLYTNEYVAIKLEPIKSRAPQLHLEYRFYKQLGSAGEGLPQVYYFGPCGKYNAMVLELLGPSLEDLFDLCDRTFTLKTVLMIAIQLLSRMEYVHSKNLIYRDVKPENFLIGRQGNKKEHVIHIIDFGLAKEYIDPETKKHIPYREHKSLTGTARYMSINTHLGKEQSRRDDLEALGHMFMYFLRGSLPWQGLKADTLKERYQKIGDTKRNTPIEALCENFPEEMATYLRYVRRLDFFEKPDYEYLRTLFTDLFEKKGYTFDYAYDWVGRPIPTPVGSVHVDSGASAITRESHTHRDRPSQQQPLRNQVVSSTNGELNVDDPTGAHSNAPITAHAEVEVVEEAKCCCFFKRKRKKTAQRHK
assay.name: radiometric filter-binding kinase assay, Kinase HotSpot
measurement.setup: compound 0.5 µM; ATP 10 µM
Please state the figure in %; there is no need to write the unit.

[[record]]
structure_as_smiles = "Oc1cccc(-c2nc(N3CCOCC3)c3oc4ncccc4c3n2)c1"
measured_endpoint = "residual activity"
data_value = 89.4

[[record]]
structure_as_smiles = "N#C/C(=C(/N)Sc1ccc(N)cc1)c1ccccc1C(F)(F)F"
measured_endpoint = "residual activity"
data_value = 89

[[record]]
structure_as_smiles = "COc1cc2ncnc(Nc3cccc(Cl)c3)c2cc1OC"
measured_endpoint = "residual activity"
data_value = 99.9

[[record]]
structure_as_smiles = "CCN(CC)CCNC(=O)c1c(C)[nH]c(/C=C2\\C(=O)Nc3ccc(Cl)cc32)c1C"
measured_endpoint = "residual activity"
data_value = 69.2

[[record]]
structure_as_smiles = "COc1ccc(COc2ccc(Cc3cnc(N)nc3N)cc2OC)cc1"
measured_endpoint = "residual activity"
data_value = 92.7

[[record]]
structure_as_smiles = "O=c1cc(N2CCOCC2)oc2c1ccc1ccccc12"
measured_endpoint = "residual activity"
data_value = 101


Given Nc1cccc(-c2cc3c(Oc4cccc(O)c4)ncnc3[nH]2)c1 , state its recorded residual activity. 102

residual activity for CNC(=O)c1cc(Oc2ccc(NC(=O)Nc3ccc(Cl)c(C(F)(F)F)c3)cc2)ccn1 ? 102

Request the reported residual activity associated with Cc1ccc(Nc2nccc(N(C)c3ccc4c(C)n(C)nc4c3)n2)cc1S(N)(=O)=O 100

Would you mind telling me what residual activity value was observed for CC#CC(=O)Nc1cc2c(Nc3ccc(F)c(Cl)c3)ncnc2cn1 ? 95.5

Record request: residual activity value, item Cc1[nH]c(/C=C2\C(=O)Nc3ccc(S(=O)(=O)N(C)c4cccc(Cl)c4)cc32)c(C)c1C(=O)N1CCN(C)CC1 104

Would you kindly share the measured residual activity for CC(C)N(CCC(=O)c1ccc2ccccc2c1)Cc1ccccc1 ? 101
